Measured inhibition at 0.1 µM by item
target: recombinant human PAI-1 (Homo sapiens, UniProt P05121); test: Test Example 2: Human PAI-1 Inhibitory Activity (pH 7.4 HEPES buffer, 10 minutes incubation with two-chain tPA); format: biochemical; set-up: purchased Molecular Innovations, Inc; settings: read-out: Inhibition Rate of PAI-1 Activity (%)
Sequence (P05121 24-402): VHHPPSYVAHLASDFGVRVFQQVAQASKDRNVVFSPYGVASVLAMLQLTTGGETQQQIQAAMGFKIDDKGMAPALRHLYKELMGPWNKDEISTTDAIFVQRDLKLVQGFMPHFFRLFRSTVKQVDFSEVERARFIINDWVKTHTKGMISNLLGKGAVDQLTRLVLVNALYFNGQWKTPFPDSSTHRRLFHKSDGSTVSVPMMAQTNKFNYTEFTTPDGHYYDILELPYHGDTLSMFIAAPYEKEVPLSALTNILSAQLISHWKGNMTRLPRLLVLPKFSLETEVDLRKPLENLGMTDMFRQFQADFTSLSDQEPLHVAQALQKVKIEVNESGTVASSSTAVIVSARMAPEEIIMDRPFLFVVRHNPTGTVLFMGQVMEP
Enter the number, and then the unit.

CCCCC(Oc1cc(Oc2ccc(OC(F)(F)F)cc2)ccc1OCCCCc1ccccc1)C(=O)O (stereo not shown)    1%
CC(C)c1ccc(Oc2cc(-c3ccc(OC(F)(F)F)cc3)ccc2CCC(=O)O)cc1    0%
CCCCCOc1cc(-c2ccc(OC(F)(F)F)cc2)cc(OCCCCC)c1OCC(=O)O    0%

Give the measured inhibition at 0.1 µM of `CC(C)(C)c1ccc(Oc2cc(OCC(=O)O)cc(-c3ccc(OC(F)(F)F)cc3)c2)cc1` .
1%

Give the measured inhibition at 0.1 µM of CCCCCCC(Oc1cc(-c2ccc(OC(F)(F)F)cc2)ccc1Oc1ccc(OC(F)(F)F)cc1)C(=O)O (stereo not shown) .
0%

Give the measured inhibition at 0.1 µM of `CC(C)(C)OCCOc1ccc(-c2ccc(OC(F)(F)F)cc2)cc1N(CCCCc1ccccc1)C(=O)C(=O)O` .
2%

Give the measured inhibition at 0.1 µM of `CCN(CC)c1ccc(N(Cc2ccc(C(C)(C)C)cc2)C(=O)C(=O)O)c(-c2ccc(OC(F)(F)F)cc2)c1` .
10%

###

target: recombinant human PAI-1 (Homo sapiens, UniProt P05121); experiment: Test Example 2: Human PAI-1 Inhibitory Activity (pH 7.4 HEPES buffer, 10 minutes incubation with two-chain tPA); assay type: biochemical; design: purchased Molecular Innovations, Inc; conditions: read-out: Inhibition Rate of PAI-1 Activity (%)
Each entry gets not met if its inhibition at 1 µM stays under 30%, and met if its inhibition at 1 µM is 30% or above.

CC(C)(C)OCCOc1ccc(-c2ccc(OC(F)(F)F)cc2)cc1N(CCCCc1ccccc1)C(=O)C(=O)O [Compound 351]    not met

Reported inhibition at 1 µM reaches at least 30% for CCCCCOc1cc(-c2ccc(OC(F)(F)F)cc2)ccc1CN(C(=O)C(=O)O)c1ccc(C(C)(C)C)cc1 [Compound 648] ?
met

Reported inhibition at 1 µM reaches at least 30% for O=C(O)C(=O)N(CCCCc1ccccc1)c1cc(-c2ccc(OC(F)(F)F)cc2)ccc1OCCC(F)(F)F [Compound 383] ?
met

Reported inhibition at 1 µM reaches at least 30% for CC(C)(C)c1ccc(CCc2cc(-c3ccc(OC(F)(F)F)cc3)ccc2OCC(=O)O)cc1 [Compound 551] ?
met

Reported inhibition at 1 µM reaches at least 30% for CC(C)c1ccc(-c2ccc(/C=C/C(=O)O)c(Oc3ccc(C(C)(C)C)cc3)c2)cc1 [Compound 518] ?
met

Reported inhibition at 1 µM reaches at least 30% for O=C(O)COc1ccc(-c2ccc(OC(F)(F)F)cc2)cc1OCCCCc1ccccc1 [Compound 337] ?
not met

Reported inhibition at 1 µM reaches at least 30% for CC(C)(C)c1ccc(CN(C(=O)C(=O)O)c2ccc(Cl)c(-c3ccc(OC(F)(F)F)cc3)c2)cc1 [Compound 186] ?
not met

###

Measured inhibition at 0.1 µM by item
biological target: recombinant human PAI-1 (Homo sapiens); assay: Test Example 2: Human PAI-1 Inhibitory Activity (pH 7.4 HEPES buffer, 10 minutes incubation with two-chain tPA); format: biochemical; set-up: purchased Molecular Innovations, Inc; conditions: read-out: Inhibition Rate of PAI-1 Activity (%)
Supply the numeric figure in %, leaving out any unit text.

Give the measured inhibition at 0.1 µM of `CCCCCOc1ccc(-c2ccccc2)cc1N(CCCCc1ccccc1)C(=O)C(=O)O` .
5

Give the measured inhibition at 0.1 µM of `O=C(O)CCc1cc(-c2ccc(OC(F)(F)F)cc2)ccc1OCCCCc1ccccc1` .
0

Give the measured inhibition at 0.1 µM of CCCCC(Oc1cc(Oc2ccc(OC(F)(F)F)cc2)ccc1OCc1ccc(C(C)(C)C)cc1)C(=O)O (stereo not shown) .
0

Give the measured inhibition at 0.1 µM of `O=C(O)C(=O)N(CCCCc1ccccc1)c1ccc(N2CCCC2)c(-c2ccc(OC(F)(F)F)cc2)c1` .
0

Give the measured inhibition at 0.1 µM of `O=C(O)COc1ccc(-c2ccc(OC(F)(F)F)cc2)cc1Oc1ccc(OCc2ccccc2)cc1` .
5

Give the measured inhibition at 0.1 µM of `CC(C)(C)c1ccc(Oc2cc(-c3ccc(OC(F)(F)F)cc3)ccc2C(=O)O)cc1` .
14

Give the measured inhibition at 0.1 µM of `O=C(O)CCc1c(Oc2ccc(OC(F)(F)F)cc2)cccc1Oc1ccc(OC(F)(F)F)cc1` .
0

Give the measured inhibition at 0.1 µM of `CC(C)c1ccc(Sc2cc(-c3ccc(OC(F)(F)F)cc3)ccc2/C=C/C(=O)O)cc1` .
16

Give the measured inhibition at 0.1 µM of `CC(C)(C)c1ccc(Oc2cc(-c3cccc([N+](=O)[O-])c3)ccc2OCC(=O)O)cc1` .
0

Give the measured inhibition at 0.1 µM of `CC(C)(C)c1ccc(C(=O)c2cc(-c3ccc(OC(F)(F)F)cc3)ccc2OCC(=O)O)cc1` .
23

Give the measured inhibition at 0.1 µM of `CCCCCCCOc1ccc(N(CCCCc2ccccc2)C(=O)C(=O)O)cc1-c1ccc(OC(F)(F)F)cc1` .
13

Give the measured inhibition at 0.1 µM of `Cc1cc(N(C)C)c(-c2ccc(OC(F)(F)F)cc2)cc1N(Cc1ccc(C(C)(C)C)cc1)C(=O)C(=O)O` .
7

Give the measured inhibition at 0.1 µM of `CCC(CC)Oc1ccc(-c2ccc(OCC(=O)O)c(Oc3ccc(C(C)(C)C)cc3)c2)cc1` .
4

Give the measured inhibition at 0.1 µM of `CC(C)(C)c1ccc(Oc2ccc(-c3cccc(C(F)(F)F)c3)cc2OCC(=O)O)cc1` .
0

Give the measured inhibition at 0.1 µM of `CSc1ccc(-c2ccc(OCC(=O)O)c(Oc3ccc(C(C)(C)C)cc3)c2)cc1` .
4

Give the measured inhibition at 0.1 µM of `CCCCCOc1ccc(-c2ccc(OC(F)(F)F)cc2)cc1N(CCCCc1cc(C)ccc1C)C(=O)C(=O)O` .
6

Give the measured inhibition at 0.1 µM of `CCCCOc1ccc(Oc2cc(-c3ccc(OC(F)(F)F)cc3)ccc2CCC(=O)O)cc1` .
1

Give the measured inhibition at 0.1 µM of `CC(C)(C)c1ccc(Oc2cc(-c3ccc(C(C)(C)C)cc3)ccc2CCC(=O)O)cc1` .
3

Give the measured inhibition at 0.1 µM of `CC(C)(C)c1ccc(-c2ccc(CCC(=O)O)c(Oc3ccc(OC(F)(F)F)cc3)c2)cc1` .
17

Give the measured inhibition at 0.1 µM of `O=C(O)/C=C/c1ccc(-c2ccc(OC(F)(F)F)cc2)cc1OC(c1ccccc1)c1ccccc1` .
2

Give the measured inhibition at 0.1 µM of `CCCCCOc1cc(-c2ccc(OC(F)(F)F)cc2)ccc1CN(CC(=O)O)c1ccc(C(C)(C)C)cc1` .
10

Give the measured inhibition at 0.1 µM of `CC(C)(C)c1ccc(Oc2ccc(-c3ccc(C(F)(F)F)cc3)cc2OCC(=O)O)cc1` .
0

Give the measured inhibition at 0.1 µM of `CC(C)(C)c1ccc(Sc2cc(-c3ccc(OC(F)(F)F)cc3)ccc2C(=O)C(=O)O)cc1` .
0

Give the measured inhibition at 0.1 µM of `CCCCCOc1cc(Oc2ccc(OC(F)(F)F)cc2)ccc1N(CCCCc1ccccc1)C(=O)C(=O)O` .
11

Give the measured inhibition at 0.1 µM of `CCCCc1ccc(-c2ccc(OCC(=O)O)c(Oc3ccc(C(C)(C)C)cc3)c2)cc1` .
7

Give the measured inhibition at 0.1 µM of `CCCCCCCOc1cc(-c2ccc(OC(F)(F)F)cc2)ccc1N(CCCCc1ccccc1)C(=O)C(=O)O` .
5

###

molecular target: recombinant human PAI-1 (Homo sapiens, UniProt P05121); experiment: Test Example 2: Human PAI-1 Inhibitory Activity (pH 7.4 HEPES buffer, 10 minutes incubation with two-chain tPA); type: biochemical; parameters: purchased Molecular Innovations, Inc; conditions: read-out: Inhibition Rate of PAI-1 Activity (%)
Measured inhibition at 1 µM by item
Supply the numeric figure in %, leaving out any unit text.

CC(C)(C)c1ccc(C(c2ccccc2)N(C(=O)C(=O)O)c2ccc(-c3ccc(OC(F)(F)F)cc3)cc2)cc1 (stereo not drawn) [Compound 222]    45
CC(C)(C)c1ccc(COc2ccc(N3CCN(c4ccc(OC(F)(F)F)cc4)CC3)cc2CCC(=O)O)cc1 [Compound 419]    41
CCCCCCCOc1ccc(N(CCCCc2ccccc2)C(=O)C(=O)O)cc1-c1ccc(OC(F)(F)F)cc1 [Compound 394]    98
CN(C(=O)c1ccc(OC(F)(F)F)cc1)c1ccc(OCc2ccc(C(C)(C)C)cc2)c(CCC(=O)O)c1 [Compound 416]    26
CCCCCN(C(=O)C(=O)O)c1cc(-c2ccc(OC(F)(F)F)cc2)ccc1OCCCOc1ccccc1 [Compound 657]    99
CCCCC(CC(=O)O)c1cc(-c2ccc(OC(F)(F)F)cc2)ccc1Oc1ccc(C(C)(C)C)cc1 (stereo not drawn) [Compound 422]    72
O=C(O)CCc1c(Oc2ccc(OC(F)(F)F)cc2)cccc1Oc1ccc(OC(F)(F)F)cc1 [Compound 98]    25
CC(C)(C)c1ccc(Oc2cc(-c3cccc(C(F)(F)F)c3)ccc2OCC(=O)O)cc1 [Compound 315]    60
CCCCCOc1ccc(-c2ccccc2)cc1N(CCCCc1ccccc1)C(=O)C(=O)O [Compound 360]    35
CC(C)(C)c1ccc(COc2ccc(-c3ccc(OC(F)(F)F)cc3)cc2N(Cc2ccccc2)C(=O)C(=O)O)cc1 [Compound 179]    68

Give the measured inhibition at 1 µM of CCCCCOc1ccc(-c2ccc(OC(F)(F)F)cc2)cc1N(CCCCc1cc(C)ccc1C)C(=O)C(=O)O [Compound 670] .
97

Give the measured inhibition at 1 µM of CC(C)(C)c1ccc(Oc2cc(-c3ccc(OC(F)(F)F)cc3)ccc2CCC(=O)O)cc1 [Compound 80] .
44

Give the measured inhibition at 1 µM of CC(CCOc1ccc(-c2ccc(OC(F)(F)F)cc2)cc1OCc1ccc(C(C)(C)C)cc1)C(=O)O (stereo not drawn) [Compound 482] .
52

Give the measured inhibition at 1 µM of CCCCCCCc1ccc(-c2ccc(OC(F)(F)F)cc2)cc1N(CCCCc1ccccc1)C(=O)C(=O)O [Compound 371] .
93

Give the measured inhibition at 1 µM of CC(C)(C)c1ccc(Oc2cc(-c3cccc([N+](=O)[O-])c3)ccc2OCC(=O)O)cc1 [Compound 485] .
11
